measurement.description: Tmax in Sprague-Dawley rat at 1 mg/kg, iv measured by LC-MS/MS analysis
Assay type: ADME, organism-based
run.conditions: in vivo
value.type: Tmax
Provide a numeric answer, followed by its unit.

[[record]]
compound_string = "COC[C@H](NC(=O)c1cc(C)on1)C(=O)NCC(=O)N[C@@H](CC(C)C)C(=O)[C@@]1(C)CO1"
result = "4.8 min"


Continue with the molecule presented below.
Query: Assign Tmax to the following record: COC[C@H](NC(=O)c1cc(C)on1)C(=O)NCC(=O)N[C@@H](Cc1ccccc1)C(=O)[C@@]1(C)CO1
Response: 4.8 min

====

Listed here are compounds together with their documented MRT.
measurement.description: Mean residence time in Sprague-Dawley rat at 1 mg/kg, iv measured by LC-MS/MS analysis
Assay type: ADME, organism-based
run.conditions: in vivo
// return numeric value only (unit: min, not printed)

[[record]]
compound_string = "COC[C@H](NC(=O)c1cc(C)on1)C(=O)NCC(=O)N[C@@H](CC(C)C)C(=O)[C@@]1(C)CO1"
quantitative_result = 19.8


Continue with the compound presented below.
Query: Assign MRT to the following record: COC[C@H](NC(=O)c1cc(C)on1)C(=O)NCC(=O)N[C@@H](Cc1ccccc1)C(=O)[C@@]1(C)CO1
Response: 8.4

====

measurement.description: Tmax in Sprague-Dawley rat at 10 mg/kg, ig measured by LC-MS/MS analysis
Assay type: ADME, organism-based
run.conditions: in vivo, po
value.type: Tmax
Provide a numeric answer, followed by its unit.

[[record]]
compound_string = "COC[C@H](NC(=O)c1cc(C)on1)C(=O)NCC(=O)N[C@@H](CC(C)C)C(=O)[C@@]1(C)CO1"
result = "13.2 min"


Continue with the molecule presented below.
Query: Assign Tmax to the following record: COC[C@H](NC(=O)c1cc(C)on1)C(=O)NCC(=O)N[C@@H](Cc1ccccc1)C(=O)[C@@]1(C)CO1
Response: 10.2 min

====

measurement.description: Mean residence time in Sprague-Dawley rat at 10 mg/kg, ig measured by LC-MS/MS analysis
Type: ADME, organism-based
run.conditions: in vivo, po
Listed here are compounds together with their documented MRT.
// return numeric value only (unit: min, not printed)

[[record]]
compound_string = "COC[C@H](NC(=O)c1cc(C)on1)C(=O)NCC(=O)N[C@@H](CC(C)C)C(=O)[C@@]1(C)CO1"
unit_label = "min"
quantitative_result = 51.6


Continue with the compound presented below.
Query: Assign MRT to the following record: COC[C@H](NC(=O)c1cc(C)on1)C(=O)NCC(=O)N[C@@H](Cc1ccccc1)C(=O)[C@@]1(C)CO1
Response: 36.6
